Hey, just so you know, these numbers are from patent US20190241669A1.

# tested.on: Human BCMA (human) (UniProt Q02223)
# assay.details: SPR, IgG immobilised, huBCMA analyte, 37 C
outcome.measure: kon (M⁻¹ s⁻¹)
One number for each entry, in M⁻¹ s⁻¹.

Here is how some binders turned out for kon.
• L3.PY/L3.KY/H2.QL (antibody, V domains shown, IgG) VH: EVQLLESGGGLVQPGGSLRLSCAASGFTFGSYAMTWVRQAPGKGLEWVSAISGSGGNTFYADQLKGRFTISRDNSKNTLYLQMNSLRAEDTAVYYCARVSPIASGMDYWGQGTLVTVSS VL: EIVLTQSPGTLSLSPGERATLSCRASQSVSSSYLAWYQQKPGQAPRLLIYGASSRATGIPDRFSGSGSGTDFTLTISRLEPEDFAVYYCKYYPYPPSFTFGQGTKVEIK = 3.65e+06
• L3.PY/L3.KF/H2.DY (antibody, V domains shown, IgG) VH: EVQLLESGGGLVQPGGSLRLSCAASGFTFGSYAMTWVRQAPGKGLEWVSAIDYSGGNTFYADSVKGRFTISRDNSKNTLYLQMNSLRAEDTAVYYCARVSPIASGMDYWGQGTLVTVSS VL: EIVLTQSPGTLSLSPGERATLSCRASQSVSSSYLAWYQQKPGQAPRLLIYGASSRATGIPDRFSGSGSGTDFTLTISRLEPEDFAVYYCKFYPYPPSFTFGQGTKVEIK = 2.74e+06

Please find the next binder below.
Lookup: // fetch kon given entry L3.PY/L1.FF/H3.TAQ (antibody, V domains shown, IgG) VH: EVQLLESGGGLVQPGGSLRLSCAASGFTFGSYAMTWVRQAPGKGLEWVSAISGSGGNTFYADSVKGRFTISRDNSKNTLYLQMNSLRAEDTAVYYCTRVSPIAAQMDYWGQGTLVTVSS VL: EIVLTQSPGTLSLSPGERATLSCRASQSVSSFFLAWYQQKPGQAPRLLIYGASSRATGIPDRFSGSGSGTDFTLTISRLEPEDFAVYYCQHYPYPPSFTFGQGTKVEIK
Found: 3.52e+06
